Cited source: patent US9090600B2

- experimentDescription: Measurement of log P values by HPLC on reversed phase columns (EEC directive 79/831 Annex V.A8)
- conditionNotes: pH 2.7
1 means recorded chromatographic logP is 3 or above; 0 means it is below 3.

- Cn1c(C(=O)c2ccccc2)noc1=O: 1
- CCCC(C)(C)OC(=O)Nc1cccc(CO/N=C(/c2ccccc2)c2noc(=O)n2C)n1: 1
- Cn1c(/C(=N\OCc2cccc(NC(=O)OC(C)(C)C)n2)c2ccccc2)noc1=O: 1
- CCN(CC)c1cccc(CO/N=C(/c2ccccc2)c2noc(=O)n2C)n1: 0

# input State whether the measured chromatographic logP reaches 3, counting equality as reaching it, for Nc1cccc(CO/N=C(/c2ccccc2)c2noc(=O)[nH]2)n1
# output 0

# input Check Cn1c(/C(=N\OCc2csc(N)n2)c2ccccc2)noc1=O too.
# output 0

# input Check CCCCOC(=O)Nc1nc(CO/N=C(/c2ccccc2)c2noc(=O)n2C)cs1 too.
# output 1

# input Check CCCCOC(=O)Nc1cccc(CO/N=C(/c2ccccc2)c2noc(=O)n2C)n1 too.
# output 1

# input Check NC(=N\O)/C(=N\OCc1csc(N)n1)c1ccccc1 too.
# output 0

# input Check Cn1c(/C(=N\OCc2cccc(N)n2)c2ccccc2)noc1=O too.
# output 0

# input Check Nc1nc(CO/N=C(/c2ccccc2)c2noc(=O)[nH]2)cs1 too.
# output 0

# input Check N/C(=N\O)C(=NOCc1cccc(N)n1)c1ccccc1 too.
# output 0

# input Check CC(Nc1cccc(CO/N=C(/c2ccccc2)c2noc(=O)n2C)n1)c1ccccc1 (stereo not shown) too.
# output 0

# input Check Cn1c(/C(=N/OCc2cccc(N)n2)c2ccccc2)noc1=O too.
# output 0

# input Check Cn1c(/C(=N\OCc2cccc(N(CCC3CCCCC3)C(=O)OC(C)(C)C)n2)c2ccccc2)noc1=O too.
# output 1

---

- Tested on: Plasmopara viticola
- experimentDescription: Plasmopara test (grapevines)/preventive
- Assay type: in vivo
- conditionNotes: preventive spray, 10 ppm of active ingredient, evaluated 6 days after inoculation
quantityMeasured: Eff. % (%)
Answers are plain numbers, in %.

• CCCCCC(=O)Nc1nc(CO/N=C(/c2ccccc2)c2noc(=O)n2C)cs1 = 100
• COc1cccc(/C(=N/OCc2cccc(NC(=O)OCCc3ccccc3)n2)c2noc(=O)n2C)c1 = 84
• Cn1c(/C(=N\OCc2cccc(NC(=O)CCC(C)(C)C)n2)c2ccccc2)noc1=O = 98
• CCCC(C)OC(=O)Nc1cccc(CO/N=C(/c2ccccc2)c2noc(=O)n2C)n1 (centres unmarked) = 96

Batch of 4 molecules: report Eff. % for each.
1. Cn1c(/C(=N\OCc2csc(NC(=O)Cc3ccccc3)n2)c2ccccc2)noc1=O
2. C=CCCCOC(=O)Nc1cccc(CO/N=C(/c2ccccc2)c2noc(=O)n2C)n1
3. C#CCCOC(=O)Nc1cccc(CO/N=C(/c2cccc(C)c2)c2noc(=O)n2C)n1
4. Cn1c(/C(=N\OCc2cccc(NC(=O)OCCc3ccccc3)n2)c2ccccc2)noc1=O

# output
1: 95; 2: 100; 3: 95; 4: 96

---

Assignment: determine reported LogP for the given compounds.
- conditionNotes: pH 2.7
Marks after values point to notes of the source that are not given here.

Known LogP results, listed for orientation:
- CC(C)CC(C)OC(=O)Nc1cccc(CO/N=C(/c2ccc(F)cc2)c2noc(=O)n2C)n1 (racemic): 4.77 [a]
- Cn1c(/C(=N\OCc2cccc(NC(=O)SC(C)(C)C)n2)c2ccccc2)noc1=O: 4.39 [a]

Batch of 6 compounds: report LogP for each.
1. CCCCCC(=O)Nc1cccc(CO/N=C(/c2cccc(F)c2F)c2noc(=O)n2C)n1
2. CC(C)(C)OC(=O)Nc1cccc(CO/N=C(\c2noc(=O)[nH]2)c2ccccc2F)n1
3. Cn1c(/C(=N\OCc2cccc(NC(=O)CC34CC5CC(CC(C5)C3)C4)n2)c2ccccc2)noc1=O
4. Cn1c(/C(=N\OCc2cccc(NC(=O)OCCc3ccc(Cl)cc3)n2)c2ccccc2)noc1=O
5. Cn1c(/C(=N\OCc2csc(NC(=O)Cc3ccccc3)n2)c2cccc(F)c2)noc1=O
6. CCCCSC(=S)Nc1cccc(CO/N=C(/c2ccccc2)c2noc(=O)n2C)n1

# output
["3.92 [a]", "3.68 [a]", "5.08 [a]", "4.53 [a]", "3.46 [a]", "4.8 [a]"]

---

- conditionNotes: pH 2.7
Marks after values point to notes of the source that are not given here.
Assignment: determine reported LogP for the given compounds.

Known LogP results, listed for orientation:
• CC(C)CCCC(=O)Nc1cccc(CO/N=C(/c2ccccc2)c2noc(=O)n2C)n1 = 4.25 [a]
• CCC/C=C\COC(=O)Nc1cccc(CO/N=C(/c2ccccc2)c2noc(=O)n2C)n1 = 4.53 [a]
• Cn1c(/C(=N\OCc2cccc(NC(=O)OC(C)(C)C(Cl)(Cl)Cl)n2)c2ccccc2)noc1=O = 4.91 [a]

Batch of 4 compounds: report LogP for each.
1. Cn1c(/C(=N\OCc2cccc(NC(=O)OC3CCCCC3)n2)c2cccc(F)c2F)noc1=O
2. Cn1c(C(=NOCc2csc(NC(=O)c3cc(F)cc(F)c3)n2)c2ccccc2)noc1=O
3. COc1cccc(/C(=N/OCc2cccc(NC(=O)OCCc3ccccc3)n2)c2noc(=O)n2C)c1
4. CC(C)C1(C(=O)Nc2cccc(CO/N=C(/c3ccccc3)c3noc(=O)n3C)n2)CC1(Cl)Cl (racemic)

# output
4.46 [a]
3.8 [a]
4.19 [a]
4.35 [a]

Batch of 2 compounds: report LogP for each.
1. Cn1c(/C(=N\OCc2cccc(NC(=O)OCCc3ccccc3Cl)n2)c2ccccc2)noc1=O
2. Cn1c(/C(=N\OCc2cccc(NC(=O)C(F)(F)Oc3ccccc3)n2)c2ccccc2)noc1=O

# output
4.56 [a]
4.08 [a]

Batch of 5 compounds: report LogP for each.
1. Cc1ccc(C(=O)Nc2nc(CO/N=C(/c3ccccc3)c3noc(=O)n3C)cs2)cc1
2. CC(C)CSC(=O)Nc1cccc(CO/N=C(/c2ccccc2)c2noc(=O)n2C)n1
3. Cn1c(/C(=N\OCc2cccc(NC(=O)CCc3ccccc3)n2)c2ccc(F)cc2)noc1=O
4. Cn1c(/C(=N\OCc2cccc(NC(=O)c3ccccc3Cl)n2)c2ccccc2)noc1=O
5. Cn1c(/C(=N\OCc2cccc(NC(=O)C3CCCCC3)n2)c2ccccc2)noc1=O

# output
1. 3.76 [a]
2. 4.39 [a]
3. 3.87 [a]
4. 3.64 [a]
5. 3.92 [a]

Batch of 2 compounds: report LogP for each.
1. Cn1c(/C(=N\OCc2csc(NC(=O)OC3CCCC3)n2)c2ccccc2)noc1=O
2. CC(C)CCCCOC(=O)Nc1cccc(CON=C(c2ccccc2)c2noc(=O)n2C)n1

# output
3.76 [a]
5.17 [a]

---

- System: Pyrenophora teres
- experimentDescription: In vivo test on Pyrenophora teres (barley net blotch)
- conditionNotes: barley plants, spray, 500 ppm, grading 12 days after contamination
quantityMeasured: Eff. % (%)
Answers are plain numbers, in %.

Known Eff. % results, listed for orientation:
- Cc1cccc(C(=NOCc2cccc(NC(=O)OC3CCCCC3)n2)c2noc(=O)n2C)c1: 79
- CCC(=O)Nc1cccc(CO/N=C(/c2ccccc2)c2noc(=O)n2C)n1: 70
- Cn1c(/C(=N\OCc2cccc(NC(=O)CCC3CCCC3)n2)c2ccccc2)noc1=O: 70
- CCCCCCOC(=O)Nc1nc(CO/N=C(/c2ccccc2)c2noc(=O)n2C)cs1: 70
- Cc1cccc(/C(=N/OCc2cccc(NC(=O)OCc3ccccc3)n2)c2noc(=O)n2C)c1: 79

Batch of 3 compounds: report Eff. % for each.
1. CC(C)C=CCCCCC(=O)Nc1cccc(CON=C(c2ccccc2)c2noc(=O)n2C)n1
2. C=CCCC(=O)Nc1cccc(CON=C(c2ccccc2)c2noc(=O)n2C)n1
3. COc1cccc(C(=O)Nc2nc(CO/N=C(/c3ccccc3)c3noc(=O)n3C)cs2)c1

# output
1. 96
2. 90
3. 97

---

- Tested on: Plasmopara viticola
- experimentDescription: Plasmopara test (grapevines)/preventive
- Type: in vivo
- conditionNotes: preventive spray, 10 ppm of active ingredient, evaluated 6 days after inoculation
quantityMeasured: Eff. % (%)
Give bare numbers, in %.

Known Eff. % results, listed for orientation:
* Cc1ccc(C(=O)Nc2cccc(CO/N=C(/c3ccccc3)c3noc(=O)n3C)n2)cc1C | 90
* CC(C)CC(=O)Nc1cccc(CO/N=C(/c2ccccc2)c2noc(=O)n2C)n1 | 79
* Cc1ccc(OCC(=O)Nc2cccc(CO/N=C(/c3ccccc3)c3noc(=O)n3C)n2)cc1 | 74

# input Notebook: pull reported Eff. % for Plasmopara viticola, entry Cn1c(/C(=N\OCc2cccc(NC(=O)C3Cc4ccccc4CO3)n2)c2ccccc2)noc1=O (stereo not shown)
# output 73

---

- conditionNotes: pH 2.7
Marks after values point to notes of the source that are not given here.
quantityMeasured: LogP

Known LogP results, listed for orientation:
* COc1ccc(/C(=N/OCc2cccc(NC(=O)OC(C)(C)C)n2)c2noc(=O)[nH]2)cc1 | 3.69 [a]
* CCCC(C)C(=O)Nc1cccc(CO/N=C(/c2cccc(OC)c2)c2noc(=O)n2C)n1 (centres unmarked) | 3.87 [a]
* Cc1ccc(C(=O)Nc2cccc(CO/N=C(/c3ccccc3)c3noc(=O)n3C)n2)o1 | 3.46 [a]

Batch of 5 compounds: report LogP for each.
1. NC(=NO)C(=NOCc1cccc(N)n1)c1ccccc1 (mixture of isomers)
2. Cn1c(/C(=N\OCc2cccc(NC(=O)CCC3(C)CC3)n2)c2ccccc2)noc1=O
3. COc1cccc(C(=NOCc2cccc(N)n2)C(N)=NO)c1 (mixture of isomers)
4. COc1ccc(/C(=N/OCc2cccc(NC(=O)OC(C)CC(C)C)n2)c2noc(=O)n2C)cc1 (centres unmarked)
5. CCCC=CCOC(=O)Nc1cccc(CON=C(c2ccccc2)c2noc(=O)n2C)n1

# output
0.39 [a]
3.87 [a]
0.58 [a]
4.72 [a]
4.56 [a]
